Below, each entry is listed with its recorded melting point.
Metric name: melting point

Molecule	Assay value
Cc1nc2nc(/C=C3/C(=O)N4C(C(=O)[O-])=CS[C@H]34)nn2c2c1CCCC2.[Na+]	250 °C (dec.)
O=C([O-])C1=CS[C@@H]2/C(=C\c3ccc4nc5n(c4c3)CCCS5)C(=O)N12.[Na+]	> 250 °C
O=C([O-])C1=CS[C@@H]2/C(=C\c3nc4ncc5c(n4n3)CCC3(C5)OCCO3)C(=O)N12.[Na+]	> 250 °C (dec.)
O=C([O-])C1=CS[C@@H]2/C(=C\c3ccc4nc5sccn5c4c3)C(=O)N12.[Na+]	> 250 °C
O=C([O-])C1=CS[C@@H]2/C(=C\c3cn4c5c(c(OCCOCc6ccccc6)nc4n3)CCC5)C(=O)N12.[Na+]	> 250 °C
